- PROTOCOL_TEXT: AUC (0 to infinity) in Sprague-Dawley rat at 1 mg/kg, iv
- Assay type: ADME, organism-based
- Parameters: time infinity, dose 1 mg/kg, route intravenous
- TEST_CONTEXT: plasma
ASSAY_METRIC: AUC(0-inf) (µM·h)

{"columns": ["COMPOUND_STRUCTURE_STRING", "OBSERVED_MEASUREMENT"],
 "data": [
  ["Cn1ccc(Nc2ncnc3ccc(Oc4c(F)cccc4S(C)(=O)=O)cc23)n1", 6.3]
]}

====

Below is a list of entries, each paired with its recorded logD value.
- PROTOCOL_TEXT: physchem
- TEST_CONTEXT: buffer, pH 7.4
ASSAY_METRIC: logD

{"columns": ["COMPOUND_STRUCTURE_STRING", "OBSERVED_MEASUREMENT"],
 "data": [
  ["CS(=O)(=O)c1cccc(F)c1Oc1ccc2ncnc(Nc3cc[nH]n3)c2c1", 1.8],
  ["Cn1ccc(Nc2ncnc3ccc(Oc4ncccc4Cl)cc23)n1", 2.9],
  ["Cc1csc(Nc2ncnc3ccc(Oc4ccccc4S(C)(=O)=O)cc23)n1", 4.3],
  ["Cc1cccc(C#N)c1Oc1ccc2ncnc(Nc3ccn(C)n3)c2c1", 3.4],
  ["Cc1cccc(S(C)(=O)=O)c1Oc1ccc2ncnc(Nc3ccn(C)n3)c2c1", 2.1],
  ["Cc1nsc(Nc2ncnc3ccc(Oc4c(F)cccc4S(C)(=O)=O)cc23)n1", 3.1],
  ["CS(=O)(=O)c1cccc(F)c1Oc1ccc2ncnc(Nc3cnccn3)c2c1", 2.2],
  ["Cn1ccc(Nc2ncnc3ccc(Oc4ccccc4S(C)(=O)=O)cc23)n1", 1.9],
  ["Cc1csc(Nc2ncnc3ccc(Oc4ccccc4F)cc23)n1", 5.8],
  ["Cn1ccc(Nc2ncnc3ccc(Oc4ncccc4Br)cc23)n1", 3.4],
  ["CCn1ccc(Nc2ncnc3ccc(Oc4c(F)cccc4S(C)(=O)=O)cc23)n1", 2.4],
  ["Cn1ccc(Nc2ncnc3ccc(Oc4c(F)cccc4F)cc23)n1", 3.7],
  ["CS(=O)(=O)c1cccc(F)c1Oc1ccc2ncnc(Nc3cccnn3)c2c1", 2],
  ["Cc1cnc(Nc2ncnc3ccc(Oc4c(F)cccc4S(C)(=O)=O)cc23)cn1", 2.5],
  ["Cn1ccc(Nc2ncnc3ccc(Oc4ccncn4)cc23)n1", 1.7],
  ["CS(=O)(=O)c1cccc(F)c1Oc1ccc2ncnc(Nc3ccccn3)c2c1", 3.6],
  ["Cc1csc(Nc2ncnc3ccc(Oc4ccc(F)cc4)cc23)n1", 5.8],
  ["Cn1ccc(Nc2ncnc3ccc(Oc4c(F)cccc4S(C)(=O)=O)cc23)n1", 1.9],
  ["Cn1ccc(Nc2ncnc3ccc(Oc4ccccn4)cc23)n1", 2.1],
  ["CN(C)C(=O)c1cccnc1Oc1ccc2ncnc(Nc3ccn(C)n3)c2c1", 1.4],
  ["Cn1ccc(Nc2ncnc3ccc(Oc4ccc(F)cc4F)cc23)n1", 3.6],
  ["Cn1ccc(Nc2ncnc3ccc(Oc4ncccc4CO)cc23)n1", 1.7],
  ["Cn1ccc(Nc2ncnc3ccc(Oc4c(Cl)cccc4S(C)(=O)=O)cc23)n1", 2.3],
  ["Cn1ccc(Nc2ncnc3ccc(Oc4ncccc4F)cc23)n1", 2.4]
]}

====

- PROTOCOL_TEXT: Cmax in Sprague-Dawley rat at 3 mg/kg
- Format: ADME, organism-based
- Set-up: dose 3 mg/kg
- TEST_CONTEXT: in vivo
ASSAY_METRIC: Cmax (µM)

{"columns": ["COMPOUND_STRUCTURE_STRING", "ASSAY_METRIC", "OBSERVED_MEASUREMENT"],
 "data": [
  ["Cn1ccc(Nc2ncnc3ccc(Oc4c(F)cccc4S(C)(=O)=O)cc23)n1", "Cmax", 5.8]
]}

Origin of values: ChEMBL document CHEMBL1155212
